study.target: human TRPV4 (hTRPV4/CHO cells) (Homo sapiens, UniProt Q9HBA0)
Construct: expressed in transfected cells; host or cells: CHO-K1
Sequence (Q9HBA0 whole entry): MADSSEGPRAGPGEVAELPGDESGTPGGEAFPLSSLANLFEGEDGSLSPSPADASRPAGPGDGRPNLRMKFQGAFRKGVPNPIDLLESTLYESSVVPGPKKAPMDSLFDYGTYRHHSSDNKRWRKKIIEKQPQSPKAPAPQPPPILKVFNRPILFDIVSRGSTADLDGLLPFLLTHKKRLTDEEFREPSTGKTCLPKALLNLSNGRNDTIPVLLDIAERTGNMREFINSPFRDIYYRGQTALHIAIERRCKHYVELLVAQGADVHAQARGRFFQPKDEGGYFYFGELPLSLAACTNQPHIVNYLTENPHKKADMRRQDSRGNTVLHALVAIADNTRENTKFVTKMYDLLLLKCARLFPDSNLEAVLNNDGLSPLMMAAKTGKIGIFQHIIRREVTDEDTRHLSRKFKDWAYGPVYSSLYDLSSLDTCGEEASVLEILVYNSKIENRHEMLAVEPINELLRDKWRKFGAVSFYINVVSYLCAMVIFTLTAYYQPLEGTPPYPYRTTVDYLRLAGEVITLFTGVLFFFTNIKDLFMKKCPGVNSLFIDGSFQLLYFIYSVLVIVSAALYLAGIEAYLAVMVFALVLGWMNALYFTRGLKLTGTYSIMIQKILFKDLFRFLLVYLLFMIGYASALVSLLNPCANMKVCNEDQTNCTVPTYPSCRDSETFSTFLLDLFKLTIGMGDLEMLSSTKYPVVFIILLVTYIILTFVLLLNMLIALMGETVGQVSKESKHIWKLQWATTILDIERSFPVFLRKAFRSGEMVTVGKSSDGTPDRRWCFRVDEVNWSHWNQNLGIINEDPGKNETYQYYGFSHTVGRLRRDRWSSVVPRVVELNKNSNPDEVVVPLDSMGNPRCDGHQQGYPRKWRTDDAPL
assay.notes: Test Example 4: TRPV4 inhibitory activity (Ki value), 4α-PDD stimulation, Fluo-3 calcium fluorescence (FDSS 3000)
Format: cell-based
cond: Test Example 4, 4α-PDD stimulation, read-out: Test 4 Ki
pKi: −log10 of the molar value.

# molecule, pKi
rows = [
    ("Cc1nc(C)c(-c2csc(NS(=O)(=O)Cc3ccccc3)n2)s1", "5.52 to 6.00"),
    ("CC(=O)c1ccc(Nc2nc(-c3sc(C)nc3C)cs2)cc1", "6.00 to 7.00"),
    ("Cc1nc(C)c(-c2csc(NC(=O)Cc3ccc(C(F)(F)F)c(F)c3)n2)s1", "> 7.00"),
    ("Cc1nc(C)c(-c2csc(NC(=O)Cc3ccc(C(F)(F)F)cc3)n2)s1", "> 7.00"),
    ("Cc1nc(C)c(-c2csc(NC(=O)CC3CCS(=O)(=O)C3)n2)s1 (stereo not drawn)", "5.52 to 6.00"),
    ("COc1ccc(Nc2nc(-c3sc(C)nc3C)cs2)cc1", "6.00 to 7.00"),
    ("Cc1nc(C)c(-c2csc(Nc3ccc(Cl)cc3)n2)s1", "6.00 to 7.00"),
    ("Cc1nc(C)c(-c2csc(NC(=O)CC3CCC3)n2)s1", "> 7.00"),
    ("Cc1nc(C)c(-c2csc(NC(=O)C3CC(=O)N(Cc4ccccc4)C3)n2)s1 (stereo not drawn)", "6.00 to 7.00"),
]

---

Each record here notes measured IC50.
study.target: human TRPV4 (hTRPV4/CHO cells) (Homo sapiens)
Construct: expressed in transfected cells; host or cells: CHO-K1
assay.notes: Test Example 1: TRPV4 inhibitory activity (IC50 value), 4α-PDD stimulation, Fluo4 calcium fluorescence (FLIPR TETRA)
Type: cell-based
cond: Test Example 1, 4α-PDD stimulation, read-out: Test 1 IC50

# smiles, IC50
rows = [
    ("Cc1nc(C)c(-c2csc(NC(=O)Cc3cc(C(=O)N[C@H](c4ccccc4)C(F)(F)F)cc([N+](=O)[O-])c3)n2)s1", "< 100 nM"),
    ("Cc1nc(C)c(-c2csc(NC(=O)Cc3ccc(S(=O)(=O)C(F)F)cc3)n2)s1", "< 100 nM"),
    ("Cc1nc(C)c(-c2csc(NC(=O)[C@H](CCc3ccccc3)NC(=O)OC(C)(C)C)n2)s1", "100 to 1000 nM"),
    ("Cc1nc(C)c(-c2csc(NC(=O)Cn3cc(-c4cccnc4)cn3)n2)s1", "100 to 1000 nM"),
]

---

Each record here notes measured pKi.
study.target: human TRPV4 (hTRPV4/CHO cells) (Homo sapiens)
Construct: expressed in transfected cells; host or cells: CHO-K1
assay.notes: Test Example 4: TRPV4 inhibitory activity (Ki value), 4α-PDD stimulation, Fluo-3 calcium fluorescence (FDSS 3000)
Format: cell-based
cond: Test Example 4, 4α-PDD stimulation, read-out: Test 4 Ki
Description: TRPV4 Inhibitory Activity (Ki Value) For each compound, TRPV4 inhibitory activity was measured using cells. (Method) The procedures of evaluating TRPV4 inhibitory activity of a compound are as follows. (1) TRPV4 inhibitory activity was measured using CHO-K1 cells stably expressing human TRPV4 (hTRPV4/CHO cells). […] (7) 20 μL of diluted compound solution was added to each well of assay plate, and mixed with built-in Pipette and Mixer of the fluorescence analysis system FDSS 3000 (Hamamatsu Photonics). […]
pKi: −log10 of the molar value.
endpoint: pKi

# compound, endpoint, data.value
measured = [
    ("O=C(Cc1ccc(C(F)(F)F)cc1)Nc1nc(-c2sc(Cl)nc2Cl)cs1", "pKi", "6.00 to 7.00"),
    ("Cc1nc(C)c(-c2csc(NC(=O)[C@H]3CC[C@H](S(=O)(=O)CC(F)(F)F)C3)n2)s1 (racemic)", "pKi", "6.00 to 7.00"),
    ("O=C(Cc1ccc(Br)cc1)Nc1nc(-c2cnc(Cl)s2)cs1", "pKi", "6.00 to 7.00"),
    ("Cc1nc(C)c(-c2csc(NC(=O)C3CCCO3)n2)s1 (stereo not drawn)", "pKi", "5.52 to 6.00"),
    ("Cc1nc(C)c(-c2csc(NC(=O)CC(F)(F)F)n2)s1", "pKi", "6.00 to 7.00"),
    ("Cc1nc(C)c(-c2csc(NC(=O)Cn3cc(Cl)cn3)n2)s1", "pKi", "> 7.00"),
    ("Cc1nc(C)c(-c2csc(NC(=O)Nc3ccc(Br)cc3)n2)s1", "pKi", "5.52 to 6.00"),
    ("Cc1nc(C)c(-c2csc(NC(=O)C3CC(F)(F)C3)n2)s1", "pKi", "> 7.00"),
    ("Cc1nc(C)c(-c2csc(NC(=O)C3CCC3)n2)s1", "pKi", "> 7.00"),
    ("Cc1nc(C)c(-c2csc(NC(=O)C(C)(C)c3ccc(Cl)cc3)n2)s1", "pKi", "6.00 to 7.00"),
    ("Cc1nc(C)c(-c2csc(NC(=O)Cc3ccc(CS(=O)(=O)C(F)(F)F)cc3)n2)s1", "pKi", "> 7.00"),
    ("Cc1nc(C)c(-c2csc(NC(=O)C(C)(C)c3ccccc3)n2)s1", "pKi", "6.00 to 7.00"),
    ("Cc1nc(C)c(-c2csc(NC(=O)Cc3ccc(F)c(Cl)c3)n2)s1", "pKi", "> 7.00"),
    ("Cc1nc(C)c(-c2csc(Nc3ccccc3)n2)s1", "pKi", "6.00 to 7.00"),
    ("CCCC(=O)Nc1nc(-c2sc(C)nc2C)cs1", "pKi", "6.00 to 7.00"),
    ("Cc1nc(C)c(-c2csc(NC(=O)C3CC3)n2)s1", "pKi", "> 7.00"),
    ("Cc1nc(C)c(-c2csc(NC(=O)C3CCCCC3)n2)s1", "pKi", "6.00 to 7.00"),
    ("CCCCCCCC(=O)Nc1nc(-c2sc(C)nc2C)cs1", "pKi", "> 7.00"),
    ("Cc1nc(CF)sc1-c1csc(NC(=O)Cc2ccc(S(=O)(=O)C(F)(F)F)cc2)n1", "pKi", "> 7.00"),
    ("Cc1nc(C)c(-c2csc(NC(=O)[C@@H]3CCC(=O)N3)n2)s1", "pKi", "5.52 to 6.00"),
    ("Cc1nc(C)c(-c2csc(NC(=O)Cc3ccc(SC(F)(F)F)cc3)n2)s1", "pKi", "> 7.00"),
    ("Cc1nc(C)c(-c2csc(NC(=O)c3ccc(S(=O)(=O)C(F)(F)F)cc3)n2)s1", "pKi", "6.00 to 7.00"),
    ("Cc1nc(C)c(-c2csc(NC(=O)CC3CC3)n2)s1", "pKi", "6.00 to 7.00"),
    ("CCCCCC(=O)Nc1nc(-c2sc(C)nc2C)cs1", "pKi", "> 7.00"),
    ("Cc1nc(C)c(-c2csc(NC(=O)C(F)c3ccccc3)n2)s1 (stereo not drawn)", "pKi", "6.00 to 7.00"),
    ("C=C(C)c1ncc(-c2csc(NC(=O)Cc3ccc(S(=O)(=O)C(F)(F)F)cc3)n2)s1", "pKi", "6.00 to 7.00"),
    ("Cc1nc(C)c(-c2csc(NC(=O)C(C)c3ccc(Cl)cc3)n2)s1 (stereo not drawn)", "pKi", "> 7.00"),
    ("Cc1nc(C)c(-c2csc(NC(=O)Cc3ccc(Br)cc3)n2)s1", "pKi", "> 7.00"),
    ("Cc1nc(C)c(-c2csc(NC(=O)Cc3ccc(Cl)c(F)c3)n2)s1", "pKi", "> 7.00"),
    ("Cc1nc(C)c(-c2csc(NC(=O)C3(c4ccc(Cl)cc4)CC3)n2)s1", "pKi", "6.00 to 7.00"),
    ("Cc1ncsc1-c1csc(NC(=O)Cc2ccc(Br)cc2)n1", "pKi", "6.00 to 7.00"),
    ("O=C(Nc1nc(-c2sc(Cl)nc2Cl)cs1)C1CCC(F)(F)C1 (stereo not drawn)", "pKi", "6.00 to 7.00"),
    ("Cc1nc(C)c(-c2csc(NC(=O)Cc3ccc(Cl)cc3)n2)s1", "pKi", "> 7.00"),
    ("Cc1nc(C)c(-c2csc(NC(=O)CCC(F)(F)F)n2)s1", "pKi", "> 7.00"),
    ("Cc1nc(C)c(-c2csc(NC(=O)C3(O)CC3)n2)s1", "pKi", "6.00 to 7.00"),
    ("Cc1nc(C)c(-c2csc(NC(=O)COc3ccc(Cl)cc3)n2)s1", "pKi", "> 7.00"),
]

Values compiled from patent US20170066759A1.
